Tested on: CAKI-1 renal
test summary: NCI tumour cell line growth inhibition, 48 h
observation type: TGI

molecule | TGI
CN1C(=O)c2ccccc2NC(=O)C12O[C@@H]2c1ccccc1 (stereo partly drawn) | > 100 µM
Cc1c(O)nc(-n2[nH]c3c(c2=O)CCCC3)[nH]c1=O | > 100 µM

Kindly consider the entry below.
Tell me the measured TGI of "C=CCn1c(=O)c(C(=O)Nc2nc(C34CC5CC(CC(C5)C3)C4)cs2)c(O)c2ccccc21" , please.
> 100 µM

----------
Tested on: NCI-H23 lung
test summary: NCI tumour cell line growth inhibition, 48 h
observation type: GI50

These recorded examples may help you get a feel for the data.
chem smiles | test system | GI50
NC(=O)c1c(NC(=O)c2ccccc2)sc2c1CCC(=O)C2 | NCI-H23 lung | 627 nM
COc1cc(N(CCC#N)CCC#N)ccc1/C(N=Nc1ccc(Cl)cc1)=N/NC(=O)c1cc(Br)ccc1O | NCI-H23 lung | > 150 µg/mL

Kindly consider the entry below.
Tell me the measured GI50 of "O=C(Cc1ccc(F)c(Cl)c1)Nc1cc(C2(C(F)(F)F)CC2)nn1CC1CCCCC1" , please.
3520 nM

----------
Test system: NCI-H522 lung
test summary: NCI tumour cell line growth inhibition, 48 h
observation type: TGI (µM)
Answers are plain numbers, in µM.

molecule | test system | measure unit | TGI
COC(=O)/C=C\C(C#N)(C#N)N=Cc1ccc(C)cc1 | NCI-H522 lung | µM | 1.64

Kindly consider the entry below.
Tell me the measured TGI of C=CCCCCC1CCC2CCC(CCCCC=C)N12 (stereo not given) , please.
28.3

----------
Test system: U251 CNS
test summary: NCI tumour cell line growth inhibition, 48 h
Could you please report measured TGI for the items listed next?

compound | TGI
COc1cc(O)c2c(c1)C(=O)c1cc3c(c(O)c1C2=O)C(OC1OC(C)C(OC)C(O)C1OC)C(OC)C(C)(O)C3=O (stereo unspecified) | 22.8 µM
CSc1cc(-c2cccs2)sc1-c1cc(SC)c(-c2sc(-c3sc(-c4cccs4)cc3SC)cc2SC)s1 | > 100 µM
Clc1ccc(-c2nnc3sc4nc5ccccc5c-4nn23)c(Cl)c1 | > 100 µM
COc1ccc2c(c1OCC(=O)O)C(=O)C(CCC(=O)O)CC2 (stereo unspecified) | > 100 µM
O=C1NC(N2CCOCC2)=N/C1=C\c1ccco1 | > 100 µM

Kindly consider the entry below.
Tell me the measured TGI of "N#C/C(=C\c1ccc2ccccc2c1)C(=O)c1ccccc1" , please.
32.9 µM

----------
Tested on: NCI/ADR-RES ovarian
test summary: NCI tumour cell line growth inhibition, 48 h
observation type: TGI

compound | TGI
CCOC(=O)c1c(-c2ccc(O)c(OC)c2)c(C#N)c(=S)n(C2OC(CO)C(O)C(O)C2O)c1-c1ccccc1 (stereo not drawn) | > 100 µM
O=C(O)c1ccccc1CC(Cc1ccc2c(c1)CCC2)C(=O)O (stereo not drawn) | > 100 µM

Kindly consider the entry below.
Tell me the measured TGI of "O=C(O)CN1CCNCCN(CC(=O)O)CCN(CC(=O)O)CCNCC1" , please.
> 100 µM

----------
System: SR leukemia
test summary: NCI tumour cell line growth inhibition, 48 h; in the data active means GI50 below about 0.43 µM; inactive means the rest
Please reply with one of these outcomes: yes (1) = active, no (0) = inactive

Record excerpt, results attached:
chem smiles | label class
Clc1cc2c(c(CSc3nc4ccccc4n4cccc34)c1)OCOC2 | no (0)
COc1cc(N(CCC#N)CCC#N)ccc1/C(N=Nc1ccc(Cl)cc1)=N/NC(=O)c1cc(Br)ccc1O | no (0)
Cc1nnc(Nc2ccc(NC(=O)Nc3ccc(Cl)cc3)cc2)c2ccccc12 | no (0)
C[C@@H]1C[C@@H]([C@@H](CC2CC(=O)NC(=O)C2)OC(=O)CC(=O)c2ccccc2)C(=O)[C@@H](C)C1 | no (0)
NC1CCN(Cc2ccccc2)CC1 | no (0)
O=C(Cc1ccc(F)c(Cl)c1)Nc1cc(C2(C(F)(F)F)CC2)nn1CC1CCCCC1 | no (0)

Now turn to the next compound.
Check the results log: what was the call for "CNCCOC(=O)/C=C1\CC[C@H]2[C@@H]([C@@H](O)C(=O)[C@@H]3[C@]2(C)CC[C@H](O)[C@]3(C)C(=O)OC)[C@H]1C" ?
yes (1)
